- protocol: ATG_NRF2_ARE_CIS: Attagene CIS-FACTORIAL HepG2 Assay for human Nuclear Factor Erythroid 2 Related Factor 2 (NFR2) response to Antioxidant Response Elements (ARE) (AID 2282992);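 for AC50: reporter mRNA level measured by RT-PCR and capillary electrophoresis fluorescence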
- test.settings: HepG2 Attagene ARE/NRF2 reporter, transcription factor activity; actives raise or lower the signal
Calls of active or inactive are those of the source. Rule for the calls: active = hit-call score of the fitted dose curve at least 0.9, where 1 is the maximum; inactive = score below 0.9.
experimental.readout: AC50

Use the examples below as a reference point.
C=C(C)C(=O)OCC(F)(F)C(F)(F)C(F)(F)C(F)(F)C(F)(F)C(F)(F)C(F)(F)F    inactive
CC(CCl)OP(=O)(OC(C)CCl)OC(C)CCl (stereo unspecified)    inactive
FC(F)(F)C(F)(F)C(F)(F)C(F)(F)C(F)(F)C(F)(F)C(F)(F)Br    inactive
Cc1cccc(N(C)C)c1    inactive
O=C(O)C(F)(F)C(F)(F)OC(F)(F)F    inactive
O=C(O)C(F)(OC(F)(F)C(F)(OC(F)(F)C(F)(OC(F)(F)C(F)(F)C(F)(F)F)C(F)(F)F)C(F)(F)F)C(F)(F)F (stereo unspecified)    inactive

Kindly give each listed record's AC50.
1. CCN(CC)c1ccc2c(C)cc(=O)oc2c1
2. FC(F)(F)C(F)(F)C(F)(F)C(F)(F)C(F)(F)C(F)(F)C(F)(F)I
3. O=C(C=Cc1ccccc1)OCC=Cc1ccccc1
4. FC(F)(F)C(F)(F)CNCC(F)(F)C(F)(F)F
5. CCCCCCS
6. Nc1ccc([N+](=O)[O-])cc1O
7. CNC(=S)NC
8. Oc1ccc(Nc2ccccc2)cc1

## Result
["59.3 µM (active)", "inactive", "2.64 µM (active)", "inactive", "inactive", "16.1 µM (active)", "inactive", "43.9 µM (active)"]

Kindly give each listed record's AC50.
1. CCCCCCOC(=O)c1ccccc1
2. Nc1ccc(S(=O)(=O)Nc2nccs2)cc1
3. CCCCCCOC(=O)c1ccccc1O
4. CCCCOCCOCCOC(=O)CCCCC(=O)OCCOCCOCCCC

## Result
1: inactive; 2: inactive; 3: inactive; 4: inactive
